Test: Spectral characteristics: molar extinction coefficient and specific absorbance (UV spectrophotometry in ethyl acetate)
Type: physicochemical
Conditions: A1cm^1%, 10 μg/ml, UVA band
Text: The calculation of the molar extinction coefficient (ε) is made from the Beer-Lambert law: [formula] Wherein: • A=absorbance • I0=intensity of the incident light • I=intensity of the transmitted light • ε=molar extinction (or molar absorbance) coefficient in M^−1 cm^−1 • l=path length in cm • c=concentration in mol/l The molar extinction coefficient can be expressed with respect to a given mass of the product. […] This quantity is 1% by weight. […] It is expressed as follows: […]
Consider the following molecules and their measured Maximum specific absorbance UVA readings.
Write the number on its own, no unit after it.

Solved entries:
MOLECULE	Maximum specific absorbance UVA
Oc1ccc(-c2nnc(-c3ccc(-c4nnc(-c5ccc(O)cc5)c(-c5ccc(O)cc5)n4)cc3)nc2-c2ccc(O)cc2)cc1 [WP35]	460
Fc1ccc(-c2nnc(-c3ccc(-c4nnc(-c5ccc(F)cc5)c(-c5ccc(F)cc5)n4)cc3)nc2-c2ccc(F)cc2)cc1 [WP89]	778

Qu. Would you kindly share the measured Maximum specific absorbance UVA for c1ccc(-c2nnc(-c3ccc(-c4nnc(-c5ccccc5)c(-c5ccccc5)n4)cc3)nc2-c2ccccc2)cc1 [WP30] ?
Ans. 928

Qu. Would you kindly share the measured Maximum specific absorbance UVA for Brc1ccc(-c2nnc(-c3ccc(-c4nnc(-c5ccc(Br)cc5)c(-c5ccc(Br)cc5)n4)cc3)nc2-c2ccc(Br)cc2)cc1 [WP52] ?
Ans. 669

Qu. Would you kindly share the measured Maximum specific absorbance UVA for Clc1ccc(-c2nnc(-c3ccc(-c4nnc(-c5ccc(Cl)cc5)c(-c5ccc(Cl)cc5)n4)cc3)nc2-c2ccc(Cl)cc2)cc1 [WP100] ?
Ans. 640

Qu. Would you kindly share the measured Maximum specific absorbance UVA for c1ccc(-c2nnc(-c3ccc(-c4ccc(-c5nnc(-c6ccccc6)c(-c6ccccc6)n5)cc4)cc3)nc2-c2ccccc2)cc1 [WP135] ?
Ans. 924

Qu. Would you kindly share the measured Maximum specific absorbance UVA for CC(C)CCC(C)(C)c1ccc(-c2nnc(-c3ccc(-c4nnc(-c5ccc(C(C)(C)CCC(C)C)cc5)c(-c5ccc(C(C)(C)CCC(C)C)cc5)n4)cc3)nc2-c2ccc(C(C)(C)CCC(C)C)cc2)cc1 [WP151] ?
Ans. 611
